Reference for the values: the supplement of paper PMC10307832

Test system: BEN
Experiment: relative viability (nuclei count vs DMSO), 5 days (fraction); higher = more cells survive
Settings: first compound 0.3162 µM
measure: relative viability

List relative viability for every entry below, keeping the order given.
1. CC(C)Oc1cc(Nc2nc(N[C@@H](C)c3ccc(F)cn3)ncc2Cl)n[nH]1 [AZ23] + COc1cccc2cc(-c3nc([C@H]4CC[C@H](C(=O)O)CC4)n4ncnc(N)c34)[nH]c12 [OSI-027] (partner 0.5 µM)
2. CC(C)Oc1cc(Nc2nc(N[C@@H](C)c3ccc(F)cn3)ncc2Cl)n[nH]1 [AZ23] + CS(=O)(=O)N1CCN(Cc2cc3nc(-c4cccc5[nH]ncc45)nc(N4CCOCC4)c3s2)CC1 [Pictilisib] (partner 1 µM)

OUT:
[0.268, 0.653]

Could you tell me relative viability for each of these compounds? They are listed below.
1. CC(C)Oc1cc(Nc2nc(N[C@@H](C)c3ccc(F)cn3)ncc2Cl)n[nH]1 [AZ23] + NC(=O)Nc1cc(-c2cccc(F)c2)sc1C(=O)N[C@H]1CCCNC1 [AZD7762] (partner 0.2 µM)
2. CC(C)Oc1cc(Nc2nc(N[C@@H](C)c3ccc(F)cn3)ncc2Cl)n[nH]1 [AZ23] + COc1cc2c(Oc3ccc(NC(=O)C4(C(=O)Nc5ccc(F)cc5)CC4)cc3F)ccnc2cc1OCCCN1CCOCC1 [Foretinib] (partner 0.25 µM)

OUT:
0.746
0.772
